target: GST-KIF15 1149-1388 (Homo sapiens (Human)); assay: NMR (STD-NMR / WaterLOGSY) versus GST-KIF15; type: binding; details: Hit / No
Sequence (Q9NS87 1149-1388): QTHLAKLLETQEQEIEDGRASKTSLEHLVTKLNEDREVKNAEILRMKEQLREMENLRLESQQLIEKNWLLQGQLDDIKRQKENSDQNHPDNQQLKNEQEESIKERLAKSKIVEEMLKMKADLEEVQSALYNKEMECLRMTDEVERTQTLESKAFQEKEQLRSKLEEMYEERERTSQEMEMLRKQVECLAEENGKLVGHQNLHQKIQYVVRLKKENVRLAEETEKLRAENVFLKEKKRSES
ENDPOINT_LABEL: NMR Versus GST-KIF15

Worked cases, answers included:
>>> df
                  compound_structure_string  test_result
0  CCOc1cccc(CN2CCc3nc(N4CCN(CC)CC4)ncc3C2)c1           No
1  CCN1CCN(c2ncc3c(n2)CCN(Cc2ccc(OC)c(OC)c2OC)C3)CC1           No
2  CCN1CCN(c2ncc3c(n2)CCN(Cc2cc(OC)c(OC)c(OC)c2)C3)CC1           No
3  CCN1CCN(c2ncc3c(n2)CCN(Cc2ccc(OC(C)C)c(OC)c2)C3)CC1           No

Here's the next entry for you.
Exercise: Please indicate recorded NMR Versus GST-KIF15 of "CCN1CCN(c2ncc3c(n2)CCN(Cc2cc(OC)c(OC)cc2OC)C3)CC1" measured with GST-KIF15 1149-1388 (Homo sapiens (Human)).
Key: No

###

biological target: KIF15/TPX2 protein-protein interaction (GST-KIF15 amino acids 1149-1388, His-TPX2 amino acids 346-747) (Homo sapiens (Human), UniProt Q9NS87); test: KIF15/TPX2 AlphaScreen assay
For each entry below, report its pIC50 value.
Numbers only, as −log10 of the molar value.

Worked cases, answers included:
>>> print(df.to_string())
                  compound_structure_string  test_result
0  CCOc1ccc(CN2CCc3nc(N4CCN(CC)CC4)ncc3C2)cc1OCC         5.55
1  CCN1CCN(c2ncc3c(n2)CCN(Cc2cc(OC)c(OC)cc2OC)C3)CC1         5.62
2  CCCN1CCN(c2ncc3c(n2)CCN(Cc2cccc(F)c2F)C3)CC1         4.56

Value sought for every listed compound: pIC50.
1. CCCN1CCN(c2ncc3c(n2)CCN(Cc2ccc(Br)cc2)C3)CC1
2. CCN1CCN(c2ncc3c(n2)CCN(Cc2ccccc2Cl)C3)CC1
3. CCN1CCN(c2ncc3c(n2)CCN(Cc2cc(OC)c(OC)c(OC)c2)C3)CC1
4. CCCN1CCN(c2ncc3c(n2)CCN(Cc2ccc(OCC)c(OC)c2)C3)CC1
5. CCOc1ccc(CN2CCc3nc(N4CCN(CC)CC4)ncc3C2)cc1OC
6. CCCN1CCN(c2ncc3c(n2)CCN(Cc2ccc(Br)s2)C3)CC1

Key:
1. 4.87
2. 5.82
3. 5.60
4. 4.35
5. 5.46
6. 4.64

###

molecular target: GST-KIF15 1149-1388 (Homo sapiens (Human)); assay: NMR (STD-NMR / WaterLOGSY) versus GST-KIF15; format: binding; settings: Hit / No
ENDPOINT_LABEL: NMR Versus GST-KIF15

Worked cases, answers included:
>>> print(df.to_string())
                  compound_structure_string                              assay_target        endpoint_label  test_result
0  CCCN1CCN(c2ncc3c(n2)CCN(Cc2ccc(CC)cc2)C3)CC1  GST-KIF15 1149-1388 (Homo sapiens (Human))  NMR Versus GST-KIF15           No
1  CCCN1CCN(c2ncc3c(n2)CCN(Cc2ccc(OCC)c(OCC)c2)C3)CC1  GST-KIF15 1149-1388 (Homo sapiens (Human))  NMR Versus GST-KIF15           No
2  CCN1CCN(c2ncc3c(n2)CCN(Cc2cc(Br)cs2)C3)CC1  GST-KIF15 1149-1388 (Homo sapiens (Human))  NMR Versus GST-KIF15          Hit
3  CCCN1CCN(c2ncc3c(n2)CCN(Cc2ccc(OCC)c(OC)c2)C3)CC1  GST-KIF15 1149-1388 (Homo sapiens (Human))  NMR Versus GST-KIF15           No
4  CCOc1ccc(CN2CCc3nc(N4CCN(CC)CC4)ncc3C2)cc1OCC  GST-KIF15 1149-1388 (Homo sapiens (Human))  NMR Versus GST-KIF15           No

Value sought for every listed compound: NMR Versus GST-KIF15.
1. CCOc1ccc(CN2CCc3nc(N4CCN(CC)CC4)ncc3C2)cc1OC
2. CCN1CCN(c2ncc3c(n2)CCN(Cc2ccc(F)cc2F)C3)CC1
3. CCCN1CCN(c2ncc3c(n2)CCN(Cc2cccc(Br)c2)C3)CC1
4. CCCN1CCN(c2ncc3c(n2)CCN(Cc2ccc(Br)s2)C3)CC1
5. CCN1CCN(c2ncc3c(n2)CCN(Cc2ccccc2Cl)C3)CC1
6. CCN1CCN(c2ncc3c(n2)CCN(Cc2cccc(OC)c2OC)C3)CC1

Key:
1: No; 2: No; 3: Hit; 4: Hit; 5: Hit; 6: No

Value sought for every listed compound: NMR Versus GST-KIF15.
1. CCCN1CCN(c2ncc3c(n2)CCN(Cc2ccc(Br)cc2)C3)CC1
2. CCCN1CCN(c2ncc3c(n2)CCN(Cc2cc(Br)cs2)C3)CC1
3. CCCN1CCN(c2ncc3c(n2)CCN(Cc2cccc(F)c2F)C3)CC1

Key:
["Hit", "Hit", "No"]
